Test readout: melting point

INSERT INTO measurements (compound, experimental_value) VALUES
  ('COC(C(=O)O)c1nn(-c2ccc(Br)cc2)c2c1CCCC2 (stereo unspecified)', '123 °C'),
  ('COCOc1nn(-c2ccccc2)cc1/C=C/c1nc(N2CCOCC2)sc1C', '162 to 164 °C'),
  ('CCCc1ccc2c(c1)C=Cc1sc(C)nc1C2c1cn(C)c(=O)[nH]c1=S (stereo unspecified)', '235 °C'),
  ('CN(C)S(=O)(=O)n1c(C#N)nc2ccccc21', '93 °C'),
  ('COc1ccc(Cc2nccc3ccccc23)cc1OC', '146 to 147 °C');

*Q* Requested field: melting point. Item: `Brc1ccc2sc3ccccc3c2c1`
*A* 112 to 116 °C

*Q* Requested field: melting point. Item: `CC1(C)CC(S(=O)(=O)Cc2c(Cl)nn(C(F)F)c2C(F)(F)F)=NO1`
*A* 136 to 137 °C

*Q* Requested field: melting point. Item: O=C(NCC(O)CO)c1cc2c(Oc3ccc(Cl)cc3)cncc2s1 (stereo unspecified)
*A* 106 to 115 °C

*Q* Requested field: melting point. Item: `CC(C)n1nc(-c2c(-c3ccccc3)nn3ccc(N4CCN(S(C)(=O)=O)CC4)cc23)ccc1=O`
*A* 219 to 220 °C

*Q* Requested field: melting point. Item: `OCc1ccc(OCc2coc(-c3ccccc3)n2)cc1`
*A* 141 to 142 °C

*Q* Requested field: melting point. Item: `O=c1[nH]c2ccccc2c(=O)n1-c1ccc(Cl)cc1`
*A* 288 to 290 °C

*Q* Requested field: melting point. Item: `O=C1NC(c2ccccc2)=N/C1=C\c1c[nH]c2ncc(Cl)cc12`
*A* 250 °C

*Q* Requested field: melting point. Item: `CCCCCCCCCc1cnc(-c2ccc(C(=O)OC)cc2)nc1`
*A* 61.7 °C

*Q* Requested field: melting point. Item: `CC(C)n1nc(-c2c(OC3CCOCC3)nc(N)nc2-c2ccccc2)ccc1=O`
*A* 207 to 209 °C
